- RUN_DESCRIPTION: Formulation of amorphous Compound 1-(S): solubility in vehicles
- Assay type: physicochemical
- RUN_PARAMETERS: aqueous with cosolvent or surfactant or cyclodextrin, thermodynamic from solid; 0.5% MC in water; target concentration 2.5 mg/mL; final pH 7.87
MEASURED_PROPERTY: solubility (µg/mL)
Enter your answer as a number in µg/mL; do not include the unit.

Query: Name the recorded solubility for Cc1noc(C)c1-c1ccc2[nH]c(=O)n3c2c1OC[C@@H]3c1ccccn1 [Amorphous Compound 1-(S)] .
Reply: 842

###

- RUN_DESCRIPTION: Formulation of amorphous Compound 1-(S): solubility in vehicles
- Type: physicochemical
- RUN_PARAMETERS: aqueous with cosolvent or surfactant or cyclodextrin, thermodynamic from solid; 0.5% MC in 50 mM citrate, pH 3.0; target concentration 2.5 mg/mL; final pH 3.03
MEASURED_PROPERTY: solubility (µg/mL)
Enter your answer as a number in µg/mL; do not include the unit.

Query: Name the recorded solubility for Cc1noc(C)c1-c1ccc2[nH]c(=O)n3c2c1OC[C@@H]3c1ccccn1 [Amorphous Compound 1-(S)] .
Reply: 1150
